Please respond with reported recombinant UMI read abundance (log10) for every item in the list.
- assay_explanation: recombinant UMI read abundance after kanamycin selection (control-corrected) (log10(CPM+1)); higher = more efficient recombination; extreme values may be limits of the assay; sequences stand for … in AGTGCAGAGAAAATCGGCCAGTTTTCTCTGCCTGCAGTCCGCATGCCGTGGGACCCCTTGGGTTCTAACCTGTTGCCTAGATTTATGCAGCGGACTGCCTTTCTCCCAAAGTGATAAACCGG…AGGTTGGTTTCACT; site = the 11-nt donor;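 also: IS621 bridge recombinase in Escherichia coli cells against a fixed T5 target plasmid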
The reply should be a number, written without any unit.

Input line: Fill blank: measured recombinant UMI read abundance (log10) of the sequence CCCTTCCCATGGACCGGTTTTCCCGGTAATCCGTATTTGGG (site CCCTTCACTCC) is ____.
Output line: 0.0226

Input line: Item: GGATTATCATGGACCGGTTTTCCCGGTAATCCGTATTTGAT (site GGATTATCTAT)
Output line: 1.82

Input line: Item: TGCATCCCATGGACCGGTTTTCCCGGTAATCCGTATTTGAC (site TGCATCCCTGT)
Output line: 0.448

Input line: Item: CGTTGTGCATGGACCGGTTTTCCCGGTAATCCGTATTTGAG (site CGTTGTGCTCT)
Output line: 1.77

Input line: Item: CCCAATTCATGGACCGGTTTTCCCGGTAATCCGTATTTGCC (site GCCAATTCTGG)
Output line: 0

Input line: Item: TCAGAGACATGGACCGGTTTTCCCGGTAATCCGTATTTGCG (site TCAAAGACTCG)
Output line: 1.55

Input line: Item: CTCCCCACATGGACCGGTTTTCCCGGTAATCCGTATTTGAG (site CTCCCGACTCT)
Output line: 0.0121

Input line: Item: AATGAGTCATGGACCGGTTTTCCCGGTAATCCGTATTTGAC (site AATGAGTCTGT)
Output line: 3.25

Input line: Item: GTAGTCGCATGGACCGGTTTTCCCGGTAATCCGTATTTGCT (site GTAGTCGCTGG)
Output line: 2.09

Input line: Item: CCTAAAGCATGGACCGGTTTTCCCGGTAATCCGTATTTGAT (site CATAAAGCTAT)
Output line: 0

Input line: Item: CGCAGCACATGGACCGGTTTTCCCGGTAATCCGTATTTGAC (site CGCAGCACTGT)
Output line: 2.95

Input line: Item: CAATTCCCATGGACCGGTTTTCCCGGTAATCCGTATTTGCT (site CAATTCGCTAG)
Output line: 0.00609

Input line: Item: CCACTAACATGGACCGGTTTTCCCGGTAATCCGTATTTGGA (site CGACTAACTTC)
Output line: 0.0202

Input line: Item: CCAGAGACATGGACCGGTTTTCCCGGTAATCCGTATTTGCG (site ACAGAGACTCG)
Output line: 0.249

Input line: Item: ATACAAGCATGGACCGGTTTTCCCGGTAATCCGTATTTGAG (site ATGCAAGCTCT)
Output line: 0.923

Input line: Item: TGTCTATCATGGACCGGTTTTCCCGGTAATCCGTATTTGAC (site TGTCTATCTGT)
Output line: 0

Input line: Item: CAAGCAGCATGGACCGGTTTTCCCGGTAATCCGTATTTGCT (site AAAGCAGCTAG)
Output line: 0

Input line: Item: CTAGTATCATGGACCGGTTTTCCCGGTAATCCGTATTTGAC (site CTAGTACCTGT)
Output line: 0
